- Test system: NCI-H1437
- assay_details: relative viability (nuclei count vs DMSO), 5 days (fraction); higher = more cells survive
- reported_conditions: first compound 20 µM
assay_readout: relative viability
The answer should be a number; do not append a unit.

These solved cases illustrate the format of a correct answer.
compound	readout_number
Cc1csc(=NC2CCCCC2)n1/N=C/c1ccc(O)c(O)c1O [MIM1] + Nc1nc2[nH]cc(CCc3ccc(C(=O)N[C@@H](CCC(=O)O)C(=O)O)cc3)c2c(=O)[nH]1 [Pemetrexed] (partner 0.2 µM)	0.154
Cc1csc(=NC2CCCCC2)n1/N=C/c1ccc(O)c(O)c1O [MIM1] + C[C@]1(O)C[C@@H](c2nc(-c3ccc4ccc(-c5ccccc5)nc4c3)c3c(N)nccn32)C1 [Linsitinib] (partner 1 µM)	0.151
Cc1csc(=NC2CCCCC2)n1/N=C/c1ccc(O)c(O)c1O [MIM1] + CS(=O)(=O)N1CCN(Cc2cc3nc(-c4cccc5[nH]ncc45)nc(N4CCOCC4)c3s2)CC1 [Pictilisib] (partner 1 µM)	0.128

We now examine a further compound.
Recorded result, Cc1csc(=NC2CCCCC2)n1/N=C/c1ccc(O)c(O)c1O [MIM1] + O=C(CCCCCCC(=O)Nc1ccccc1)NO [Vorinostat] (partner 1 µM) , relative viability: 0.197
